- protocol: NCI Yeast Anticancer Drug Screen. Data for the cln2 rad14 strain (AID 165);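 further: 0% = growth equal to vehicle treated cultures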
- run conditions: S. cerevisiae cln2 rad14 strain, at 50.0 µM, hits give high values
This is part of a sample that, as a whole, favours compounds with a hit. Of some 79,000 tested, about 15% had one in any assay.
measure name: growth inhibition (%)
Numeric answer only, unit % assumed.

Worked cases, growth inhibition given:
CC(C)N1C(=O)c2ccccc2C1=O ... 19.8
CN(C)c1ccc(C2(c3ccc(N(C)C)cc3)OC(=O)c3cc(N(C)C)ccc32)cc1 ... -31.7
Cc1cccc(C)[n+]1[O-] ... -38.8

The compound listed as `CCOc1cccc2c1N[S@@](=O)S2` has a reported growth inhibition of 16.2
